Tested on: Eberthella typhi
Experiment: microbe, parasite or virus in culture
Type: cell-based
Conditions: read-out: Minimum Effective Concentration, Bactericidal
attribute-measured: MBC (µg/mL)
Only the number, expressed in µg/mL, is required.

Some compounds with recorded MBC:
# compound, attribute-measured, result-number
rows = [
    ("O=C(C(Cl)Cl)N(CCN(Cc1ccc(Oc2ccc([N+](=O)[O-])cc2)cc1)C(=O)C(Cl)Cl)Cc1ccc(Oc2ccc([N+](=O)[O-])cc2)cc1 [Example 13A]", "MBC", 750),
    ("Cc1c(C)c(CCNCc2ccc(Oc3ccc([N+](=O)[O-])cc3)cc2)c(C)c(C)c1CCNCc1ccc(Oc2ccc([N+](=O)[O-])cc2)cc1 [Example 16A]", "MBC", 750),
    ("CN(CCCCCCN(C)Cc1ccc(Oc2ccc([N+](=O)[O-])cc2)cc1)Cc1ccc(Oc2ccc([N+](=O)[O-])cc2)cc1 [Example 11A]", "MBC", 750),
    ("Nc1ccc(Oc2ccc(CNCCCCCCCCNCc3ccc(Oc4ccc(N)cc4)cc3)cc2)cc1 [Example 14A]", "MBC", 75),
    ("O=[N+]([O-])c1ccc(Oc2ccc(CNCCCCCCCCNCc3ccc(Oc4ccc([N+](=O)[O-])cc4)cc3)cc2)cc1 [Example 6A]", "MBC", 25),
    ("O=[N+]([O-])c1ccc(Oc2ccc(CNCCCCCCNCc3ccc(Oc4ccc([N+](=O)[O-])cc4)cc3)cc2)cc1 [Example 7]", "MBC", 50),
]

Pending compound:
// returns reported MBC for input O=[N+]([O-])c1ccc(Oc2ccc(CNC[C@H]3CC[C@H](CNCc4ccc(Oc5ccc([N+](=O)[O-])cc5)cc4)CC3)cc2)cc1 [Example 10A]
75

---

Tested on: Clostridium welchii
Assay: microbe, parasite or virus in culture
Assay type: cell-based
Details: Clostridium, read-out: Minimum Effective Concentration, Bactericidal
Strictly below 100 µg/mL in MBC: criterion met. Otherwise: criterion not met.

Study these solved cases before continuing.
# compound, label
rows = [
    ("CN(CCCCCCN(C)Cc1ccc(Oc2ccc([N+](=O)[O-])cc2)cc1)Cc1ccc(Oc2ccc([N+](=O)[O-])cc2)cc1 [Example 11A]", "criterion not met"),
    ("O=C(C(Cl)Cl)N(CCN(Cc1ccc(Oc2ccc([N+](=O)[O-])cc2)cc1)C(=O)C(Cl)Cl)Cc1ccc(Oc2ccc([N+](=O)[O-])cc2)cc1 [Example 13A]", "criterion not met"),
    ("O=[N+]([O-])c1ccc(Oc2ccc(CNCCNCc3ccc(Oc4ccc([N+](=O)[O-])cc4)cc3)cc2)cc1", "criterion met"),
]

I wonder whether O=[N+]([O-])c1ccc(Oc2ccc(CNCCCCCCNCc3ccc(Oc4ccc([N+](=O)[O-])cc4)cc3)cc2)cc1 has MBC below 100 µg/mL. Can you tell?
criterion met

Try this compound next: O=[N+]([O-])c1ccc(Oc2ccc(CNCCCCCCCCNCc3ccc(Oc4ccc([N+](=O)[O-])cc4)cc3)cc2)cc1
criterion met

Try this compound next: Cc1c(C)c(CCNCc2ccc(Oc3ccc([N+](=O)[O-])cc3)cc2)c(C)c(C)c1CCNCc1ccc(Oc2ccc([N+](=O)[O-])cc2)cc1 [Example 16A]
criterion not met

---

Tested on: Staphylococcus aureus
Assay: microbe, parasite or virus in culture
Type: cell-based
Settings: Staphylococcus aureus; read-out: Minimum Effective Concentration, Bacteriostatic
Strictly below 10 µg/mL in MIC: Condition met. Otherwise: Condition not met.

Study these solved cases before continuing.
# molecule, label
records = [
    ("O=C(Nc1ccccc1)N(CCCCCCN(Cc1ccc(Oc2ccc([N+](=O)[O-])cc2)cc1)C(=O)Nc1ccccc1)Cc1ccc(Oc2ccc([N+](=O)[O-])cc2)cc1 [Example 12A]", "Condition not met"),
    ("O=[N+]([O-])c1ccc(Oc2ccc(CNCCCCCCCCNCc3ccc(Oc4ccc([N+](=O)[O-])cc4)cc3)cc2)cc1 [Example 6A]", "Condition met"),
]

I wonder whether Cc1c(C)c(CCNCc2ccc(Oc3ccc([N+](=O)[O-])cc3)cc2)c(C)c(C)c1CCNCc1ccc(Oc2ccc([N+](=O)[O-])cc2)cc1 [Example 16A] has MIC below 10 µg/mL. Can you tell?
Condition met

Try this molecule next: CN(CCCCCCN(C)Cc1ccc(Oc2ccc([N+](=O)[O-])cc2)cc1)Cc1ccc(Oc2ccc([N+](=O)[O-])cc2)cc1 [Example 11A]
Condition met
